meta.source: patent US9926281B2

target: UniProtKB P50281
readoutKind: IC50

INSERT INTO results (compound, reportedresult) VALUES
  ('C[C@H]1CN(C(=O)CCC2(c3cnccn3)NC(=O)NC2=O)CCN1c1cccc(F)c1 (some centres unmarked)', '1.31 µM');

Q: Query IC50 on UniProtKB P50281 for C[C@H]1CN(C(=O)CCC2(c3cnn(C)c3)NC(=O)NC2=O)CCN1c1cc(F)cc(F)c1 (some centres unmarked)
Result: 0.026 µM

Q: Query IC50 on UniProtKB P50281 for Cc1cccc(C2(CCC(=O)N3CCN(c4cc(F)cc(F)c4)[C@@H](C)C3)NC(=O)NC2=O)n1 (some centres unmarked)
Result: > 20 µM
